peptide exchange yield for assorted binders
# target-or-system: T1, HLA-A*02:01 (peptide-receptive MHC class I monomer from UV-ligand exchange) (human)
# T1 construct: Monomers were captured on streptavidin-coated plates
# method-summary: UV-exchange ELISA (anti-b2m); exchange yield grade: + >=10%, ++ >=20%, +++ >=50%, ++++ >=75%

# binder, peptide exchange yield
data = [
    ("GLDDGPDFL [peptide GLDDGPDFL (SEQ ID NO 66)]", "20 to 50%"),
    ("SLFDVSHML [peptide SLFDVSHML (SEQ ID NO 115)]", "50 to 75%"),
    ("KTLERSYLL [peptide KTLERSYLL (SEQ ID NO 123)]", "20 to 50%"),
]

--- query ---
Lab note: measured peptide exchange yield of KLGDLMVLL [peptide KLGDLMVLL (SEQ ID NO 173)] was 50 to 75%
